Reference source for all entries: ChEMBL document CHEMBL1201862

Test system: 786-0
Test: NCI tumour cell line growth inhibition, 48 h
Activity calls are given as the source filed them. No stated cut-off is given here; in the data, active = GI50 up to about 1.1 µM and inactive = higher.
Response enum: active, inactive

Task item: Recorded call for CC1=C(C(=O)N[C@@H](CC(C)C)C(=O)O)N2C(=O)[C@@H](NC(=O)[C@@H](N)Cc3ccccc3)[C@H]2SC1 ?
Reply: inactive

* * *

Tested on: Hs-578T
Assay: NCI tumour cell line growth inhibition, 48 h
Active and inactive are the calls of the source. Rule as the data show it: active = GI50 up to about 1.1 µM and inactive = higher.
Response enum: T (active), F (inactive)

compound: O=C1c2ccccc2-c2nnc3c(c21)Cc1ccccc1C3
classAssignment: F
--
compound: COC1/C=C/C(C)C(C(C)C(OC)C(C)CCC(=O)C(C)C(CCC(=O)O)OC)OC(=O)/C=C/C=C(\C)CC(OC)CC2=CC(=O)O[C@@H](C(C)C(OC)CC(OC)/C=C/C(C)C(OC)C1)[C@H]2O (stereo not given in full)
classAssignment: T
--
compound: c1ccc2c(c1)N[C@@H]1c3[nH]c4ccccc4c3CC[C@H]21
classAssignment: F

Task item: Recorded call for O=C(O)C1CSC2(CCCN(Cc3ccccc3)C2)N1 (stereo not given) ?
Reply: F

Task item: Next compound up: COc1cc(C2c3cc4c(cc3OC(N3CCCC3)C2C)OCO4)cc(OC)c1O (stereo not given)
Reply: F

Task item: Next compound up: O=[N+]([O-])c1ccc2c(c1)/C(=N/N=C1c3ccccc3Cc3ccccc31)c1cc([N+](=O)[O-])cc([N+](=O)[O-])c1-2
Reply: F

Task item: Next compound up: COc1ccc(/C=C\c2cc(OC)c(OC)c(OC)c2)c(O)c1O
Reply: T

Task item: Next compound up: c1ccc(-c2c3c(nc4c2CC[C@H]4NC2=NCCN2)[C@@H](NC2=NCCN2)CC3)cc1
Reply: F
